target: HCoV-229E 3CL protease (Human coronavirus 229E); assay: FRET based protease assay, HCoV-229E 3CL; conditions: 229E IC50, 6 nM H229E-CoV Chis-3CLpro, 6 μM peptide 1 substrate, 25° C., 1.5 hrs, pH 7.5
recorded-endpoint: IC50

Look over these answered cases.
# smiles-data, reported
data = [
    ("CC(C)(C(=O)N[C@H]1CCCC[C@H]2CNC(=O)[C@H]2C[C@@H](C#N)NC(=O)[C@@H]2[C@@H]3[C@H](CN2C1=O)C3(C)C)c1ccc(Cl)cc1", "< 100 nM"),
    ("CC(C)(C)CC(=O)N[C@H]1CCCC[C@H]2CNC(=O)[C@H]2C[C@@H](C#N)NC(=O)[C@@H]2[C@@H]3[C@H](CN2C1=O)C3(C)C", "< 100 nM"),
]

What value of IC50 has been recorded for this entry: CC(C)(C)OC(=O)N[C@H]1CCCC[C@H]2CNC(=O)[C@H]2C[C@@H](C#N)NC(=O)[C@@H]2[C@@H]3[C@H](CN2C1=O)C3(C)C
< 100 nM

----------
Exercise: state measured pIC50 for each of the molecules provided.
target: HCoV-229E 3CL protease (Human coronavirus 229E, UniProt P0C6U2); assay: FRET based protease assay, HCoV-229E 3CL; settings: 229E IC50, 6 nM H229E-CoV Chis-3CLpro, 6 μM peptide 1 substrate, 25° C., 1.5 hrs, pH 7.5
Sequence (P0C6U2 2966-3267): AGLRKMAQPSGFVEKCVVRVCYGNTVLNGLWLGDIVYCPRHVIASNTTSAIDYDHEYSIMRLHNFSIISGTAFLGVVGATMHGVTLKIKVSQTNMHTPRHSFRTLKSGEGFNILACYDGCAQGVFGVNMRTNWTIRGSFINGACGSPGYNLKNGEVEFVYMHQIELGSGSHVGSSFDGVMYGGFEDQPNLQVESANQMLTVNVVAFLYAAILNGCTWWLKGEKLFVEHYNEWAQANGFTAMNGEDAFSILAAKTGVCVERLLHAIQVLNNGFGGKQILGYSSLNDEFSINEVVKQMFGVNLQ
pIC50: −log10 of the molar value.

Look over these answered cases.
# smiles-data, pIC50
records = [
    ("CC(C)(C)OC(=O)N[C@H]1CCCC[C@H]2CNC(=O)[C@H]2C[C@@H](C#N)NC(=O)[C@@H]2CC(F)(F)CN2C1=O", "4.70 to 6.00"),
    ("CC(C)C[C@@H]1NC(=O)CCCC[C@@H]2CNC(=O)[C@@H]2C[C@@H](C=O)NC1=O", "4.70 to 6.00"),
    ("CC(C)C[C@@H]1NC(=O)CCCCCC[C@H]2CNC(=O)[C@H]2C[C@@H](C=O)NC1=O", "> 7.00"),
]

Attention now turns to another entry.
What value of pIC50 has been recorded for this entry: CC(C)C[C@@H]1NC(=O)[C@@H](NC(=O)C(C)(C)C)CC/C=C/[C@H]2CNC(=O)[C@H]2C[C@@H](C#N)NC1=O
> 7.00

----------
target: HCoV-229E 3CL protease (Human coronavirus 229E); assay: FRET based protease assay, HCoV-229E 3CL; conditions: 229E IC50, 6 nM H229E-CoV Chis-3CLpro, 6 μM peptide 1 substrate, 25° C., 1.5 hrs, pH 7.5
pIC50: −log10 of the molar value.
recorded-endpoint: pIC50

# smiles-data, pIC50
measured = [
    ("CC(C)C[C@@H]1NC(=O)[C@@H](Cc2ccccc2)CCCC[C@@H]2CNC(=O)[C@@H]2C[C@@H](C=O)NC1=O", "4.70 to 6.00"),
]

Kindly give each listed record's pIC50.
1. CC(C)C[C@@H]1NC(=O)[C@@H](N(C)C(=O)OC(C)(C)C)CCC[C@H]2CNC(=O)[C@@H]2C[C@@H](C#N)NC1=O
2. CC(C)(C)C(=O)N[C@H]1CCCC[C@H]2CNC(=O)[C@H]2C[C@@H](C#N)NC(=O)[C@H](C2CCCC2)NC1=O
3. CC(C)C[C@@H]1NC(=O)CCCC[C@H]2CNC(=O)[C@@H]2C[C@@H](C#N)NC1=O
4. CCC(C)(C)[C@@H]1NC(=O)[C@@H](NC(=O)OC(C)(C)C)CCCC[C@H]2CNC(=O)[C@H]2C[C@@H](C#N)NC1=O
5. CC1(C)[C@@H]2[C@H]3C(=O)N[C@H](C#N)C[C@@H]4C(=O)NC[C@@H]4CCCC[C@H](NC(=O)c4ccc(F)cc4F)C(=O)N3C[C@@H]21

["4.70 to 6.00", "6.00 to 7.00", "6.00 to 7.00", "4.70 to 6.00", "> 7.00"]

----------
target: HCoV-229E 3CL protease (Human coronavirus 229E, UniProt P0C6U2); test: FRET based protease assay, HCoV-229E 3CL; conditions: 229E IC50, 6 nM H229E-CoV Chis-3CLpro, 6 μM peptide 1 substrate, 25° C., 1.5 hrs, pH 7.5
recorded-endpoint: IC50

# compound, target-desc, IC50
measured = [
    ("Cc1cc(C(=O)N[C@H]2CCCC[C@H]3CNC(=O)[C@H]3C[C@@H](C#N)NC(=O)[C@@H]3[C@@H]4[C@H](CN3C2=O)C4(C)C)no1 [Example 122]", "HCoV-229E 3CL protease (Human coronavirus 229E, UniProt P0C6U2)", "< 100 nM"),
    ("CC(C)C[C@@H]1NC(=O)[C@H](Cc2ccccc2)CCC[C@H]2CNC(=O)[C@@H]2C[C@@H](C=O)NC1=O [Example 21]", "HCoV-229E 3CL protease (Human coronavirus 229E, UniProt P0C6U2)", "< 100 nM"),
    ("CC(C)C[C@@H]1NC(=O)CCCCC[C@@H]2CNC(=O)[C@H]2C[C@@H](C=O)NC1=O [Example 31]", "HCoV-229E 3CL protease (Human coronavirus 229E, UniProt P0C6U2)", "1000 to 20000 nM"),
    ("CC(C)(C)OC(=O)N[C@H]1CCCC[C@H]2CNC(=O)[C@H]2C[C@@H](C#N)NC(=O)[C@@H]2[C@H]3CC[C@H](CC3)N2C1=O [Example 111]", "HCoV-229E 3CL protease (Human coronavirus 229E, UniProt P0C6U2)", "100 to 1000 nM"),
    ("CC(C)(C)C(=O)N[C@H]1CCCC[C@H]2CNC(=O)[C@H]2C[C@@H](C#N)NC(=O)[C@@H]2[C@@H]3[C@H](CN2C1=O)C3(C)C [Example 55]", "HCoV-229E 3CL protease (Human coronavirus 229E, UniProt P0C6U2)", "< 100 nM"),
]

Kindly give each listed record's IC50.
1. N#C[C@@H]1C[C@@H]2C(=O)NC[C@@H]2/C=C/CC[C@H](NC(=O)C(F)(F)F)C(=O)N2C[C@@H]3CCC[C@@H]3[C@H]2C(=O)N1 [Example 101]
2. CC(C)C[C@@H]1NC(=O)CCCCCC[C@H]2CNCC(=O)[C@@H]2C[C@@H](C=O)NC1=O [Example 52]
3. CC(C)(C)OC(=O)N[C@@]1(C)CCCCC[C@H]2CNC(=O)[C@H]2C[C@@H](C#N)NC(=O)[C@@H]2[C@@H]3[C@H](CN2C1=O)C3(C)C [Example 126]
4. CC1(C)[C@@H]2[C@H]3C(=O)N[C@H](C#N)C[C@@H]4C(=O)NC[C@@H]4CCCC[C@H](NS(=O)(=O)C(F)(F)F)C(=O)N3C[C@@H]21 [Example 158]
5. CC(C)(C)C[C@@H]1NC(=O)[C@@H](NC(=O)OC(C)(C)C)CCCC[C@H]2CNC(=O)[C@H]2C[C@@H](C#N)NC1=O [Example 60]
6. CC(C)C[C@@H]1NC(=O)[C@@H](Cc2ccc(F)cc2)CCCC[C@H]2CNC(=O)[C@H]2C[C@@H](C#N)NC1=O [Example 43]

1. < 100 nM
2. 100 to 1000 nM
3. > 20000 nM
4. < 100 nM
5. < 100 nM
6. 100 to 1000 nM

----------
molecular target: HCoV-229E 3CL protease (Human coronavirus 229E); assay: FRET based protease assay, HCoV-229E 3CL; conditions: 229E IC50, 6 nM H229E-CoV Chis-3CLpro, 6 μM peptide 1 substrate, 25° C., 1.5 hrs, pH 7.5
recorded-endpoint: IC50

# smiles-data, target-desc, IC50
rows = [
    ("CC(C)(C)C(=O)N[C@H]1CCCC[C@H]2CNC(=O)[C@H]2C[C@@H](C#N)NC(=O)[C@@H]2CCCN2C1=O", "HCoV-229E 3CL protease (Human coronavirus 229E)", "1000 to 20000 nM"),
    ("N#C[C@@H]1C[C@H]2C(=O)NC[C@@H]2CCCCC(=O)N2C[C@@H]3CCC[C@@H]3[C@H]2C(=O)N1", "HCoV-229E 3CL protease (Human coronavirus 229E)", "1000 to 20000 nM"),
    ("CC(C)(C)OC(=O)N[C@H]1CCCC[C@H]2CNC(=O)[C@H]2C[C@@H](C#N)NC(=O)[C@H](CC2CCCC2)NC1=O", "HCoV-229E 3CL protease (Human coronavirus 229E)", "< 100 nM"),
]

Kindly give each listed record's IC50.
1. CC(C)C[C@@H]1NC(=O)[C@@H](Cc2ccccc2)CCCC[C@H]2CNC(=O)[C@H]2C[C@@H](C=O)NC1=O
2. CC1(C(=O)N[C@H]2CCCC[C@H]3CNC(=O)[C@H]3C[C@@H](C#N)NC(=O)[C@@H]3[C@@H]4[C@H](CN3C2=O)C4(C)C)COC1
3. Cc1nc(C(=O)N[C@H]2CCCC[C@H]3CNC(=O)[C@H]3C[C@@H](C#N)NC(=O)[C@@H]3[C@@H]4[C@H](CN3C2=O)C4(C)C)cs1
4. CC1(C)[C@@H]2[C@H]3C(=O)N[C@H](C#N)C[C@@H]4C(=O)NC[C@@H]4CCCC[C@H](NC(=O)OC4(C(F)(F)F)CCC4)C(=O)N3C[C@@H]21
5. CC(C)(C)COC(=O)N[C@H]1CCCC[C@H]2CNC(=O)[C@H]2C[C@@H](C#N)NC(=O)[C@@H]2[C@@H]3[C@H](CN2C1=O)C3(C)C
6. CC1(C(=O)N[C@H]2CCCC[C@H]3CNC(=O)[C@H]3C[C@@H](C#N)NC(=O)[C@@H]3[C@@H]4[C@H](CN3C2=O)C4(C)C)CCC1
7. CC1(C)[C@@H]2[C@H]3C(=O)N[C@H](C#N)C[C@@H]4C(=O)NC[C@@H]4CCCC[C@H](NC(=O)C4CCOCC4)C(=O)N3C[C@@H]21

1: < 100 nM; 2: < 100 nM; 3: 100 to 1000 nM; 4: < 100 nM; 5: < 100 nM; 6: < 100 nM; 7: < 100 nM

Kindly give each listed record's IC50.
1. CC1(C)[C@@H]2[C@H]3C(=O)N[C@H](C#N)C[C@@H]4C(=O)NC[C@@H]4CCCC[C@H](N)C(=O)N3C[C@@H]21
2. CC1(C)[C@@H]2[C@H]3C(=O)N[C@H](C#N)C[C@@H]4C(=O)NCC[C@@H]4CCCC[C@H](NC(=O)c4ccc(F)cc4F)C(=O)N3C[C@@H]21

< 100 nM
< 100 nM

Attribution: patent US20260325540A1
